- Tested on: human pulmonary fibroblasts
- procedure details: WST-1 cytotoxicity test (cell viability)
- run parameters: WST-1, concentrations up to 30 µM
measured attribute: cytotoxicity (in words)

1. N=C(N)Nc1cccc(-c2ccccc2F)n1; cytotoxic
2. N=C(N)Nc1cccc(-c2cc(Cl)ccc2Cl)n1; cytotoxic

====

List of inhibition at 1 µM values.
- experimental target: human synthetic MSK1 (14-438-K, Millipore) (Homo sapiens, UniProt O75582)
- Construct: purchased Millipore 14-438-K
- Sequence (O75582 whole entry): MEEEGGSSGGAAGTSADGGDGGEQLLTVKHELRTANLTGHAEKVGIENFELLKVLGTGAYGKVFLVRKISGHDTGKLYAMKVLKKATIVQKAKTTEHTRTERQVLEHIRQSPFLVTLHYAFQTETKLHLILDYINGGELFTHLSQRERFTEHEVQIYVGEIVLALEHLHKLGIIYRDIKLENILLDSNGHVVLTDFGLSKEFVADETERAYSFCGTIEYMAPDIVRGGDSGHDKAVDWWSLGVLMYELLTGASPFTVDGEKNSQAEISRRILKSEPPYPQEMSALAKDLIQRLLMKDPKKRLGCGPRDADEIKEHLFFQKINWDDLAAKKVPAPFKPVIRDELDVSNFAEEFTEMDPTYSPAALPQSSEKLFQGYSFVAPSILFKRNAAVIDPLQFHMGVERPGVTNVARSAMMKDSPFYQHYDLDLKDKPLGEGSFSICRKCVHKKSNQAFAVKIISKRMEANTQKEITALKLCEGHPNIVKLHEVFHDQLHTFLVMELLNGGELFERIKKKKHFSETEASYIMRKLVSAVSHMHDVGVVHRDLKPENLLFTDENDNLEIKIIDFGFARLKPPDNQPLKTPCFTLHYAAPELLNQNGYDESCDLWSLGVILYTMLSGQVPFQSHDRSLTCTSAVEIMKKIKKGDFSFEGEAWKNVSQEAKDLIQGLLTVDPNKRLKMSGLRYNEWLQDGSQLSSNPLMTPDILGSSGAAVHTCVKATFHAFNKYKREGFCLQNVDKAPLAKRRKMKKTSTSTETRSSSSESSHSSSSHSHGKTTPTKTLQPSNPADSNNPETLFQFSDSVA
- procedure details: MSK1 enzymatic inhibition assay (Kinase-Glo luminescence)
- Type: biochemical
- run parameters: compound at 1 µM; ± Standard Deviation (n = 4); read-out: MSK1 % Inhibition 1 µM
Use % as the unit, but write only the number.

The following compounds have reported results that may help.
1) Br.COc1cccc(-c2cccc3c2CNC(N)=N3)c1 [Compound 37e]; -6
2) N=C(N)Nc1ncccc1-c1ccccc1; 1
3) N=C(N)Nc1cccc(-c2ccc(C(F)(F)F)cc2)n1.O=C(O)C(F)(F)F; -6
4) N=C(N)Nc1cccc(-c2ccccc2F)n1; 6

Request: Please state recorded inhibition at 1 µM (tested on human synthetic MSK1 (14-438-K, Millipore) (Homo sapiens, UniProt O75582)) of Br.Nc1nc2c(-c3cc(Cl)ccc3Cl)cccc2[nH]1 [Compound 49f]
Result: 6

====

Where a name gives a salt, the structure may show the parent alone.
List of melting point values.

1) Br.NC1=Nc2cccc(-c3ccccc3Cl)c2CN1 [Compound 37f]; 178 to 179 °C
2) N=C(N)Nc1cccc(-c2ccoc2)n1.O=C(O)C(F)(F)F; 219 to 221 °C
3) Br.NC1=Nc2cccc(-c3ccc(Cl)cc3)c2CN1 [Compound 37b]; 196 to 197 °C
4) N=C(N)Nc1cccc(-c2cc(Cl)ccc2Cl)n1 (as salt: trifluoroacetate); 151 to 152 °C

Consider now this further compound.
Request: // melting point lookup, key: N=C(N)Nc1cccc(-c2ccncc2)n1 (as salt: trifluoroacetate)
Result: 208 to 209 °C

====

- experimental target: human synthetic MSK1 (14-438-K, Millipore) (Homo sapiens, UniProt O75582)
- Construct: purchased Millipore 14-438-K
- procedure details: MSK1 enzymatic inhibition assay (Kinase-Glo luminescence)
- Format: biochemical
- run parameters: compound at 10 µM; ± Standard Deviation (n = 4); read-out: MSK1 % Inhibition 10 µM
- Experimental: All results are summarized in Table 1, Table 2, Table 3, Table 4 and Table 5 and on Figure 4. […] An orthogonal luminescence-based assay Kinase-Glo® (Promega, Madison, WI, USA) was used to validate the hits, quantifying the amount of the remaining ATP in the solution following the kinase reaction. Enzymatic reactions were performed up to 4h at room temperature in presence of 3 µM ATP. […] Luminescence was measured with EnVision Plate Reader (Perkin Elmer).
Label criterion met for high-side inhibition at 10 µM (at or above 40%) and criterion not met for low-side inhibition at 10 µM (below it).

1. Cc1ccccc1-c1cccc(NC(=N)N)n1; criterion met
2. NC1=Nc2cccc(-c3ccccc3)c2CN1 [Compound 37a]; criterion met
3. N=C(N)Nc1cccc(-c2ccccc2)n1; criterion met

Request: Is inhibition at 10 µM for COc1ccc(-c2cccc3c2CNC(N)=N3)cc1 [Compound 37c] at or above 40%?
Result: criterion not met
